Test system: SNB-78 CNS
Assay: NCI tumour cell line growth inhibition, 48 h
measure.name: TGI

{"columns": ["compound", "test.result"],
 "data": [
  ["COc1c(NC(=O)CC(C)=O)[c]([Hg][O]C(C)=O)c(OC)c(Cl)[c]1[Hg][O]C(C)=O", "34.2 µM"],
  ["CC(=O)OCC1OC(n2c(=O)n(-c3ccccc3)c(=O)c3cc(Br)cc(Br)c32)C(OC(C)=O)C(OC(C)=O)C1OC(C)=O (configuration not stated)", "> 100 µM"],
  ["CCOC(=O)[C@H]1Nc2ccc(Cl)cc2[C@H]2OCC[C@@H]12", "> 100 µM"],
  ["O=C(O)C1=NNC(C(=O)O)=NN1", "> 100 µM"],
  ["Cc1ccc(C2(O)CC(c3ccc([N+](=O)[O-])o3)=NN2C(=O)COc2ccccc2Cl)cc1 (configuration not stated)", "> 100 µM"],
  ["O=C(/C=C/c1ccccc1O)c1cccnc1", "> 100 µM"],
  ["CCOC(=O)N1N=NC2C3OC(C[C@@]3(C#N)OC(C)=O)[C@H]21 (some centres not stated)", "> 100 µM"],
  ["COc1cc(/C=C/c2ccc(OC(C)=O)cc2)cc(OC)c1OC", "> 100 µM"],
  ["CCc1ccc(Nc2cc(=O)[nH]c(=S)n2C)cc1", "> 100 µM"],
  ["Nc1ncnc2c(C3OC(CO)C(O)C3O)[nH]nc12 (configuration not stated)", "40.4 µM"],
  ["COc1cc(O)c2c(c1)C(=O)c1cc(C)cc(O)c1C2=O", "> 100 µM"],
  ["CCOC(=O)C(Cc1ccccc1)NC(=O)OC(C)(C)C (configuration not stated)", "> 100 µM"]
]}

Data origin: PubChem BioAssay (NCI)
